test: MTT-based viability assay; type: cell-based; settings: human, MRC-5 human fibroblasts; 50 mg/L, 72 h; read-out: Viability of MRC-5 cells (% of viable cells ± SD)
The label T is reserved for viability at 72 h, 50 mg/L strictly under 90%; F covers values equal to or above it.

Example cases with answers are listed next.
1. OB(O)c1cc(F)cc(B(O)O)c1 T
2. OB(O)c1ccc(B(O)O)c(F)c1F F
3. OB(O)c1cc(F)c(B(O)O)cc1F F

Ask: Strictly below 90%: is that where viability at 72 h, 50 mg/L of OB(O)c1cc(C(F)(F)F)c(B(O)O)cc1C(F)(F)F sits?
Reply: F

Ask: Strictly below 90%: is that where viability at 72 h, 50 mg/L of OB(O)c1cc(B(O)O)c(F)cc1F sits?
Reply: T

Ask: Strictly below 90%: is that where viability at 72 h, 50 mg/L of OB(O)c1ccccc1S sits?
Reply: T

Ask: Strictly below 90%: is that where viability at 72 h, 50 mg/L of OB(O)c1ccc(B(O)O)c(F)c1 sits?
Reply: F
